target: fibrils of Aβ40 and Aβ42; test: Inhibition of N-[^3H-methyl]6-OH-BTA-1 ([^3H]PIB) binding to β-amyloid fibrils, determination of Ki; details: radioligand used for Ki calculation; [L] 4 nM
quantity kind: Kd (nM)

[[record]]
compound = "CNc1ccc(-c2nc3ccc(O)cc3s2)cc1 [[^3H]PIB, N-[^3H-methyl]6-OH-BTA-1]"
recorded_result = 4.2

